# System name: RSV prefusion F (preF), subtype B (respiratory syncytial virus, subtype B)
# Measurement notes: BLI, IgG
Outcome measure: pKd
Give bare numbers, as −log10 of the molar value.

Solved entries (count: 3):
| Binder | pKd |
| --- | --- |
| ADI-20983 (antibody, V domains shown) VH: EVQLVESGGALVQPGGSLRLSCSASGFTFSSYAMHWVRQAPGKGLEYVSAINNFGDKTYYTDSVEGRFTISRDNSKKTLYLQMSSLRPEDTAVYYCVKDRGYCSSPSCYAVPYYYFYGMDVWGQGTTVTVSS VL: EIVMTQSPSSLSASVGDRVTITCQASQGISNYLHWYQQKPGKAPKLLIYDASNLEAGVPSRFSGSGAGTDFTFTISSLQPEDVATYYCQHYNNLPFTFGPGTKVDIK | 8.93 |
| ADI-14588 (antibody, V domains shown) VH: QVQLVQSGAEVKKPGASVKVSCKVSGDTLTELSIHWVRQAPGKGHEWMGYFDHEDGEIMYAQKFQGRVTMTGDTSTDTAYMELSSLRSEDTAVYYCATVAAAGQFDYWGQGTLVTVSS VL: DIQLTQSPSSLSASVGDRVTITCRARQSISTYLNWYQQKPGKAPKLLIYAASSLQSGVPSRFSGSGSGTDFTLTISSLQPEDFATYYCQQSYSSPYTFGQGTKVDIK | 8.83 |
| ADI-21045 (antibody, V domains shown) VH: EVQLVESGGGLVKPGGSLRLSCLASGFKFRSYSMNWVRQAPGTGLVWVASISASSSFIFYADSLKGRFTISRDNDKNSLYLQMNSLTVEDTAVYYCVRDMSGISSGGKTFDYWGQGTLVTVSS VL: QSVLTQPPSVSGAPGQRVTISCTGSSSNLGAGYDVQWYQQLPGTAPKLLIYGNNNRPSGVPDRFSGSKSGTSASLAITGLRAEDEADYYCQSYDTSPVFGGGTKLTVL | 9.22 |

Respectfully, I request pKd for each entry included below.
1. ADI-20976 (antibody, V domains shown) VH: QVQLVESGGDLVQKGGSLRLSCAASGFTFDNYAMTWIRQAPGQGLEWVSTVSGFVLGTGYTTYYADSVKGRFTISRDSSKNTVYLQLNSLRAEDTAVYYCAKCAATRNECLWDYLQQWGQGTTVTVSS VL: EIVMTQSPSSLSASVGDRVTITCRASQSVSIYLNWYQQKGGKAPKLLIYGASALQRGVPSRFSGSGSGTDFTLTITSLQPEDFATYFCHQSYSAPQTFGQGTKVDIK
2. ADI-14587 (antibody, V domains shown) VH: EVQLLESGGGLVKPGGSLRLSCAASGFTLTSYSMNWVRQAPGKGLEWVSSISSSSSYIHYADSVKGRFTISRDNAKNSLYLQMNSLRAEDTAVYYCAGSSLYPPFFDYWGQGTLVTVSS VL: QSVVTQPPSVSGAPGQRVTISCTGSSSNLGAGYDVHWYQQLPGTAPKLLIYGNNNRPSGVPDRFSGSKSGTSASLAITGLQAEDEADYYCQSYDSSLSSVVFGGGTKLTVL

Solution:
1: 9.02; 2: 9.08
